Each recorded value in this set is attributed to patent US10238713B2.

System: LPS-induced TNF-α production
Assay type: cell-based
Details: Table 2A, compound 100 μg/ml (DMSO only: 196)
Non-standard residues stand in square brackets, D forms with d. Residues, ends and D or L forms follow the SMILES beside them. d(β3hF) = N[C@@H](CC(=O)O)Cc1ccccc1; β3hF = N[C@H](CC(=O)O)Cc1ccccc1
Threshold check on TNF-α: strictly below 100 pg/mL is MET; on or above 100 pg/mL is NOT MET.

{"MOLECULE": "O=C1C[C@@H](Cc2ccccc2)NC(=O)[C@H]2CCCN2C(=O)[C@H]2CCCN2C(=O)[C@@H](Cc2ccccc2)N1 [I-J] (cyclo([d(β3hF)][dF][dP][dP]))", "TARGET OR TEST SYSTEM": "LPS-induced TNF-α production", "CLASS ASSIGNMENT": "NOT MET"}
{"MOLECULE": "O=C1C[C@H](Cc2ccccc2)NC(=O)[C@H]2CCCN2C(=O)[C@H]2CCCN2C(=O)[C@@H](Cc2ccccc2)N1 [I-E] (cyclo([dF][dP][dP][β3hF]))", "TARGET OR TEST SYSTEM": "LPS-induced TNF-α production", "CLASS ASSIGNMENT": "NOT MET"}
{"MOLECULE": "O=C1C[C@H](Cc2ccccc2)NC(=O)[C@@H]2CCCN2C(=O)[C@@H]2CCCN2C(=O)[C@H](Cc2ccccc2)N1 [I-A] (cyclo(FPP[β3hF]))", "TARGET OR TEST SYSTEM": "LPS-induced TNF-α production", "CLASS ASSIGNMENT": "NOT MET"}
{"MOLECULE": "O=C1C[C@@H](Cc2ccccc2)NC(=O)[C@@H]2CCCN2C(=O)[C@@H]2CCCN2C(=O)[C@H](Cc2ccccc2)N1 [I-G] (cyclo(FPP[d(β3hF)]))", "TARGET OR TEST SYSTEM": "LPS-induced TNF-α production", "CLASS ASSIGNMENT": "MET"}
{"MOLECULE": "O=C1C[C@H](Cc2ccccc2)NC(=O)[C@H]2CCCN2C(=O)[C@@H]2CCCN2C(=O)[C@H](Cc2ccccc2)N1 [I-H] (cyclo(FP[dP][β3hF]))", "TARGET OR TEST SYSTEM": "LPS-induced TNF-α production", "CLASS ASSIGNMENT": "NOT MET"}
{"MOLECULE": "O=C1C[C@H](Cc2ccccc2)NC(=O)[C@@H]2CCCN2C(=O)[C@H]2CCCN2C(=O)[C@H](Cc2ccccc2)N1 [I-F] (cyclo([dP]P[β3hF]F))", "TARGET OR TEST SYSTEM": "LPS-induced TNF-α production", "CLASS ASSIGNMENT": "MET"}
{"MOLECULE": "O=C1C[C@H](Cc2ccccc2)NC(=O)[C@@H]2CCCN2C(=O)[C@@H]2CCCN2C(=O)[C@@H](Cc2ccccc2)N1 [I-D] (cyclo(PP[β3hF][dF]))", "TARGET OR TEST SYSTEM": "LPS-induced TNF-α production", "CLASS ASSIGNMENT": "NOT MET"}

---

Tested on: human PBMC
Assay: Toxicity test: PBMC survival in 24 h culture (MTT)
Settings: 100 μg/ml, ANOVA, FIGS. 8A-8F (4B8M repeated per figure)
Non-standard residues stand in square brackets, D forms with d. Residues, ends and D or L forms follow the SMILES beside them. *: point of attachment. Phe(4-I) = N[C@@H](Cc1ccc(I)cc1)C(=O)O; Phe(4-Me) = Cc1ccc(C[C@H](N)C(=O)O)cc1; Hyp = O=C(O)[C@@H]1C[C@@H](O)CN1; Tic = O=C(O)[C@@H]1Cc2ccccc2CN1; β3hF = N[C@H](CC(=O)O)Cc1ccccc1; tBu = CC(C)(C)*
RECORDED ENDPOINT: PBMC survival, P vs DMSO at appropriate dilution

{"MOLECULE": "O=C1C[C@H](Cc2ccccc2)NC(=O)[C@@H]2Cc3ccccc3CN2C(=O)[C@@H]2CCCN2C(=O)[C@H](Cc2ccccc2)N1 [I-AB] (cyclo(FP[Tic][β3hF]))", "TARGET OR TEST SYSTEM": "human PBMC", "TEST VALUE": 0.0001}
{"MOLECULE": "CC(C)(C)Oc1ccc(C[C@H]2CC(=O)N[C@@H](Cc3ccccc3)C(=O)N3CCC[C@H]3C(=O)N3CCC[C@H]3C(=O)N2)cc1", "TARGET OR TEST SYSTEM": "human PBMC", "TEST VALUE": 0.0090}
{"MOLECULE": "O=C1C[C@H](Cc2ccccc2)NC(=O)[C@@H]2CCCN2C(=O)[C@@H]2C[C@@H](O)CN2C(=O)[C@H](Cc2ccccc2)N1 [I-R] (cyclo(F[Hyp]P[β3hF]))", "TARGET OR TEST SYSTEM": "human PBMC", "TEST VALUE": 0.0019}
{"MOLECULE": "O=C1C[C@H](Cc2ccccc2)NC(=O)[C@@H]2CCCN2C(=O)[C@@H]2CCCN2C(=O)[C@H](Cc2ccc(I)cc2)N1 [I-W] (cyclo(PP[β3hF][Phe(4-I)]))", "TARGET OR TEST SYSTEM": "human PBMC", "TEST VALUE": 0.9602}
{"MOLECULE": "Cc1ccc(C[C@@H]2NC(=O)C[C@H](Cc3ccccc3)NC(=O)[C@@H]3CCCN3C(=O)[C@@H]3CCCN3C2=O)cc1 [I-Z] (cyclo(PP[β3hF][Phe(4-Me)]))", "TARGET OR TEST SYSTEM": "human PBMC", "TEST VALUE": 0.0236}
{"MOLECULE": "CC(C)(C)Oc1ccc(C[C@@H]2NC(=O)C[C@H](Cc3ccccc3)NC(=O)[C@@H]3CCCN3C(=O)[C@@H]3CCCN3C2=O)cc1 [I-N] (cyclo(PP[β3hF]Y(tBu)))", "TARGET OR TEST SYSTEM": "human PBMC", "TEST VALUE": 1.0000}
